These entries and their values trace back to PubChem BioAssay AID2060488.

System: 966289-007-R4-J1-PDC complex spheroid viability;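 further: spheroids exposed to the agents for seven days before readout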
Assay: Anticancer human tumor 966289-007-R4-J1-PDC patient-derived pancreatic adenocarcinoma cell line growth inhibition [GQUAD]; active means viability on the fitted dose curve at most 10% of control; inactive means the rest
Details: second compound 10 µM; first compound 0.316 µM
Please answer using one outcome listed in active, inactive

Ask | Per the records of this test, what outcome belongs to COc1ncnc(C2CC2)c1-c1ncc2cnn(Cc3ccc(-c4nc(C(F)(F)F)cn4C(C)C)cc3)c2n1 + CN(C)c1ccc(Nc2c3ccc(NC(=O)CCN4CCCC4)cc3nc3cc(NC(=O)CCN4CCCC4)ccc23)cc1 ?
Reply | inactive

Ask | Per the records of this test, what outcome belongs to CCCS(=O)(=O)Nc1ccc(F)c(C(=O)c2c[nH]c3ncc(-c4ccc(Cl)cc4)cc23)c1F + Cc1[nH]c2ccc(F)cc2c1-c1nc2c3cccnc3c3ncccc3c2[nH]1 ?
Reply | inactive

Ask | Per the records of this test, what outcome belongs to C=CCn1c(=O)c2cnc(Nc3ccc(N4CCN(C)CC4)cc3)nc2n1-c1cccc(C(C)(C)O)n1 + Cc1[nH]c2ccc(F)cc2c1-c1nc2c3cccnc3c3ncccc3c2[nH]1 ?
Reply | inactive

Ask | Per the records of this test, what outcome belongs to COc1cccc2c1C(=O)c1c(O)c3c(c(O)c1C2=O)CC(O)(C(=O)CO)CC3OC1CC(N)C(O)C(C)O1 (stereo unspecified) + Cc1[nH]c2ccc(F)cc2c1-c1nc2c3cccnc3c3ncccc3c2[nH]1 ?
Reply | active

Ask | Per the records of this test, what outcome belongs to C=CCn1c(=O)c2cnc(Nc3ccc(N4CCN(C)CC4)cc3)nc2n1-c1cccc(C(C)(C)O)n1 + CN(C)c1ccc(Nc2c3ccc(NC(=O)CCN4CCCC4)cc3nc3cc(NC(=O)CCN4CCCC4)ccc23)cc1 ?
Reply | inactive

Ask | Per the records of this test, what outcome belongs to C=CC(=O)N1CCN(c2nc(=O)n(-c3c(C)ccnc3C(C)C)c3nc(-c4c(O)cccc4F)c(F)cc23)C(C)C1 (stereo unspecified) + Cc1[nH]c2ccc(F)cc2c1-c1nc2c3cccnc3c3ncccc3c2[nH]1 ?
Reply | inactive

Ask | Per the records of this test, what outcome belongs to CCc1c2c(nc3ccc(O)cc13)-c1cc3c(c(=O)n1C2)COC(=O)[C@]3(O)CC + Cc1[nH]c2ccc(F)cc2c1-c1nc2c3cccnc3c3ncccc3c2[nH]1 ?
Reply | active

Ask | Per the records of this test, what outcome belongs to COc1ccc([C@@H](O)c2cc(-c3ncnc4cc(N5CCOCC5)ccc34)c(F)cc2Cl)nn1 + Cc1[nH]c2ccc(F)cc2c1-c1nc2c3cccnc3c3ncccc3c2[nH]1 ?
Reply | inactive

Ask | Per the records of this test, what outcome belongs to Nc1ccn(C2OC(CO)C(O)C2(F)F)c(=O)n1 (stereo unspecified) + CN(C)c1ccc(Nc2c3ccc(NC(=O)CCN4CCCC4)cc3nc3cc(NC(=O)CCN4CCCC4)ccc23)cc1 ?
Reply | active

Ask | Per the records of this test, what outcome belongs to COc1ccc([C@@H](O)c2cc(-c3ncnc4cc(N5CCOCC5)ccc34)c(F)cc2Cl)nn1 + CN(C)c1ccc(Nc2c3ccc(NC(=O)CCN4CCCC4)cc3nc3cc(NC(=O)CCN4CCCC4)ccc23)cc1 ?
Reply | inactive

Ask | Per the records of this test, what outcome belongs to C#Cc1c(F)ccc2cc(O)cc(-c3ncc4c(N5CC6CCC(C5)N6)nc(OCC56CCCN5CC(F)C6)nc4c3F)c12 (stereo unspecified) + Cc1cnc(CNC(=O)c2c(=O)c3ccc(N4CCCN(C)CC4)nc3n3c2sc2ccccc23)cn1 ?
Reply | active
